TEST SYSTEM: PI3Kγ (Homo sapiens)
Construct: host or cells: THP-1
METHOD: PI3Kγ cellular assay in THP-1 cells (AKT pS473 AlphaLISA)
Format: cell-based
CONDITION LABEL: Table 2, rhMCP-1 stimulated AKT pS473, read-out: cellular potency (PI3Kγ IC50)
pIC50: −log10 of the molar value.
Below, each entry is listed alongside its reported pIC50.

Cc1cc(-c2ccn3nc(N)c(C(=O)N[C@H]4CC[C@@H](O)CC4)c3n2)cc2c1C(=O)N([C@@H](C)C1CC1)C2 [Example 205] = 6.00 to 7.00
CCNC(=O)c1c(N)nn2ccc(-c3cc(C)c4c(c3)CN([C@@H](C)C3CC3)C4=O)nc12 [Example 233] = 6.00 to 7.00
Cc1cc(-c2ccn3nc(N)c(C(=O)NC4CC4)c3n2)cc2c1C(=O)N(C(C)(C)CO)C2 [Example 316] = 6.00 to 7.00
Cc1cc(-c2ccn3nc(N)c(C(=O)NCC(=O)Nc4ccccc4)c3n2)cc2c1C(=O)N([C@@H](C)C1CC1)C2 [Example 279] = < 6.00

-- ask Send back PI3Kγ (Homo sapiens) pIC50 of Cc1cc(-c2ccn3nc(N)c(C(=O)N[C@@H]4CCOC4)c3n2)cc2c1C(=O)N([C@@H](C)C1CC1)C2 [Example 176] only.
-- reply 6.00 to 7.00

-- ask Send back PI3Kγ (Homo sapiens) pIC50 of Cc1cc(-c2ccn3nc(N)c(C(=O)N[C@@H]4C[C@@H]4F)c3n2)cc2c1C(=O)N([C@@H](C)C1CC1)C2 [Example 263] only.
-- reply 6.00 to 7.00

-- ask Send back PI3Kγ (Homo sapiens) pIC50 of Cc1cc(-c2ccn3nc(N)c(C(=O)N[C@H]4CC[C@H](C(=O)O)CC4)c3n2)cc2c1C(=O)N([C@@H](C)C1CC1)C2 [Example 187] only.
-- reply 6.00 to 7.00

-- ask Send back PI3Kγ (Homo sapiens) pIC50 of CC[C@@H](CO)N1Cc2cc(-c3ccn4nc(N)c(C(=O)NC5CC5)c4n3)cc(C)c2C1=O [Example 309] only.
-- reply 6.00 to 7.00

-- ask Send back PI3Kγ (Homo sapiens) pIC50 of Cc1cc(-c2ccn3nc(N)c(C(=O)N[C@H](C(N)=O)c4ccccc4)c3n2)cc2c1C(=O)N([C@@H](C)C1CC1)C2 [Example 286] only.
-- reply < 6.00

* * *

Below, each entry is listed alongside its reported pIC50.
TEST SYSTEM: PI3Kγ (Homo sapiens, UniProt P48736)
Construct: host or cells: THP-1
Sequence (P48736 whole entry): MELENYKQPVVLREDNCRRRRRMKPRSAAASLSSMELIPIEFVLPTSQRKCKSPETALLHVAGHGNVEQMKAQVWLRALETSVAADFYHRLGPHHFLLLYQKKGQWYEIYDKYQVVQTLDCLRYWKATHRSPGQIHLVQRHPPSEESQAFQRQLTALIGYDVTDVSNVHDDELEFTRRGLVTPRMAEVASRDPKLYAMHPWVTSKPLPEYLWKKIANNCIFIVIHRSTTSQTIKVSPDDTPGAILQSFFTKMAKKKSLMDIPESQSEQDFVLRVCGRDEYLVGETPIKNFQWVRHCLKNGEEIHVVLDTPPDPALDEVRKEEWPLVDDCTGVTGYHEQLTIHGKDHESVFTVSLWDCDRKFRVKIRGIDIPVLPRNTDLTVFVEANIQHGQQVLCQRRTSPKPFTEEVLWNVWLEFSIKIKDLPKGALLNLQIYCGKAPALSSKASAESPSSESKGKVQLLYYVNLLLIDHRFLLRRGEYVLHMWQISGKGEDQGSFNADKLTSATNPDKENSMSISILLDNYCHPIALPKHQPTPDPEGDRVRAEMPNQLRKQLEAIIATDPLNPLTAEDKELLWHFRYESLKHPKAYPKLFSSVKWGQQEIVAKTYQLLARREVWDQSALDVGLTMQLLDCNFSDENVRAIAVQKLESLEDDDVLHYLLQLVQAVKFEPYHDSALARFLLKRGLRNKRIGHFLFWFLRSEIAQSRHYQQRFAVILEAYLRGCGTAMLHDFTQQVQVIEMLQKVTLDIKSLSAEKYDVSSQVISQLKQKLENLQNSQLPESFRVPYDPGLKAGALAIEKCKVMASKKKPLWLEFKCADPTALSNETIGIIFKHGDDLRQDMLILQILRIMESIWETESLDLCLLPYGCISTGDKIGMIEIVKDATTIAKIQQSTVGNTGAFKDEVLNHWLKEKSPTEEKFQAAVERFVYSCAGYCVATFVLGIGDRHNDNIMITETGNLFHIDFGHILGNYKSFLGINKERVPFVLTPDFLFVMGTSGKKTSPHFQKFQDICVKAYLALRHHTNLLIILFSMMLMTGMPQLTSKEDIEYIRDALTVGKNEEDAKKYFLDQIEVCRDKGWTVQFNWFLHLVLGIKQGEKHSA
METHOD: PI3Kγ cellular assay in THP-1 cells (AKT pS473 AlphaLISA)
Assay type: cell-based
CONDITION LABEL: Table 1, rhMCP-1 stimulated AKT pS473, read-out: cellular potency (PI3Kγ IC50)
pIC50: −log10 of the molar value.

Please review the entries below; each comes with its answer.
C[C@@H](C1CC1)N1Cc2cc(-c3ccn4nc(N)c(C(=O)N[C@H]5C[C@](C)(O)C5)c4n3)cc(NS(C)(=O)=O)c2C1=O = > 7.00
CCS(=O)(=O)Nc1cc(-c2ccn3nc(N)c(C(=O)N[C@H]4C[C@](C)(O)C4)c3n2)cc2c1C(=O)N([C@@H](C)C1CC1)C2 = > 7.00

-- ask Answer with reported pIC50 of `C[C@@H](C1CC1)N1Cc2cc(-c3ccn4nc(N)c(C(=O)N[C@H]5CNC(=O)C5)c4n3)cc(C(F)(F)F)c2C1=O`
-- reply > 7.00
